Measured pIC50, listed per entry for reference.
target: T1, recombinant human VEGF165 (human, UniProt P15692-4 27-191); assay: VEGF165/hVEGFR1-Fc competition ELISA
T1 construct: also called hVEGF165; rhVEGF165
T1 sequence (P15692 other isoform, or with tags, fused parts or gaps limits assumed): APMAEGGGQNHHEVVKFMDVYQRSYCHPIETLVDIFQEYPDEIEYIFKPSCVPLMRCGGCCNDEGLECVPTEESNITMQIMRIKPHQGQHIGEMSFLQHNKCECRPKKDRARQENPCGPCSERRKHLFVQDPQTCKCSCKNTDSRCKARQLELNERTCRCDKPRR
pIC50: −log10 of the molar value.
measure.name: pIC50

[[record]]
binder = "VEGFBII010 (VHH, bivalent VHH in one chain; also called VEGFBII23B04-35GS-23B04; homodimeric VEGFBII23B04) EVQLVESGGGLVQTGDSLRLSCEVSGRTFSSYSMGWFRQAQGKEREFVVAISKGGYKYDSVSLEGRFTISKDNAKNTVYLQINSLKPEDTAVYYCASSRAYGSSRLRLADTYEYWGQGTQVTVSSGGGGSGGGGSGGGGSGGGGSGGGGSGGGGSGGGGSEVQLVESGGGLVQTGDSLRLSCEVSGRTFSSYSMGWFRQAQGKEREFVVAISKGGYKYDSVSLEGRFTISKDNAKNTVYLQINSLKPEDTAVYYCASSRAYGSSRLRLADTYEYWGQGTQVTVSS"
val = 10.13

[[record]]
binder = "VEGFBII022 (VHH, biparatopic bivalent VHH in one chain; also called VEGFBII23B04-9GS-5B05) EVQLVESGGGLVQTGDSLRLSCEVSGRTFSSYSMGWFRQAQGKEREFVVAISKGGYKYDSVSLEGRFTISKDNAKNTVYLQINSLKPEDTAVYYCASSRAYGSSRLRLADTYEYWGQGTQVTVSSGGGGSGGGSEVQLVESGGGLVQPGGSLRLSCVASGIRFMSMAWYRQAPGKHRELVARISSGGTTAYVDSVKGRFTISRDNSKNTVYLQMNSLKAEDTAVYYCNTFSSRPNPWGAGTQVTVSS"
val = 9.65

[[record]]
binder = "VEGFBII021 (VHH, biparatopic bivalent VHH in one chain; also called VEGFBII23B04-40GS-5B05) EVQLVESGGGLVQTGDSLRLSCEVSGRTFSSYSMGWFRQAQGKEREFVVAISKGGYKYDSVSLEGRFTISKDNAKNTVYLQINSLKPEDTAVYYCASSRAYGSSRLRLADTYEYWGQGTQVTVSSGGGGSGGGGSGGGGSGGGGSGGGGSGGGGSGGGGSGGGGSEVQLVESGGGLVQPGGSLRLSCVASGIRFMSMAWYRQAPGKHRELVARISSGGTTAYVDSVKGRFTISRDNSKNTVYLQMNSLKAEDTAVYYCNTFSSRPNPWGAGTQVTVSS"
val = 9.60

